Test: melting temperature; fluorescence melt of hairpins on a sequencing array, two-state fit, raised by 9.35 °C to match UV melts
Conditions: sodium 0.088 M
Quick rule for you: Tm under 40 °C gets y, anything else gets n.

[
  {
    "chain": "GATTGCCGAAAGGCTATC (((.(((....))).)))",
    "qualitative.label": "n"
  },
  {
    "chain": "GCTACGGGAAACCACAGC (((..((....))..)))",
    "qualitative.label": "y"
  },
  {
    "chain": "GCCACCGAAAGGTTCGGC ((((((....)))..)))",
    "qualitative.label": "n"
  },
  {
    "chain": "GAATGCGAAAGCAAATTC ((((((....)))..)))",
    "qualitative.label": "y"
  },
  {
    "chain": "GGACGCGAAAGCGTTTCC ((((((....)))..)))",
    "qualitative.label": "y"
  },
  {
    "chain": "GCGGGGGCCGC ((((...))))",
    "qualitative.label": "n"
  },
  {
    "chain": "GTTCTAGGAAACTGGAAC ((((.((....)).))))",
    "qualitative.label": "n"
  },
  {
    "chain": "GTGAGTTCGAAAGAACAC (((..(((....))))))",
    "qualitative.label": "n"
  },
  {
    "chain": "GATCCCCCGGGGATC ((((((...))))))",
    "qualitative.label": "n"
  },
  {
    "chain": "GATCAGCCAACTGATC ((((((....))))))",
    "qualitative.label": "n"
  },
  {
    "chain": "GCGGATCCCGC ((((...))))",
    "qualitative.label": "n"
  }
]

Value source: the array DNA melting data of Ke et al. (doi:10.1101/2024.01.08.574731)
